Biological target: DLG1_1, Q12959
Experiment: holdup assay
Set-up: key: below the threshold = too weak to quantify, mostly under pKd 3.1 to 4
Details: plain residues with an end cap or a label only (N-terminal biotin on a linker: ado-ado)
EXPERIMENTAL_ENDPOINT: pKd

EDLTKNHDEL [RCN1, Q15293] = below the threshold
FVHPILQSAV [PRKCA, P17252] = 3.81
GFGEERESIL [KIDINS220, Q9ULH0] = below the threshold
QKNKDKEYYV [NRXN3_rs746444206, Q9Y4C0] = below the threshold

Shift focus to the following entry.
// field: pKd; key: TETASVCTKV [SLC23A1, Q9UHI7] ; value = 3.84
